Source listed as patent US11345666B2.

pIC50 values by entry
# TESTED_TARGET: full-length human RORγt (Homo sapiens (Human), UniProt P51449)
# Sequence (P51449 other isoform, or with tags, fused parts or gaps): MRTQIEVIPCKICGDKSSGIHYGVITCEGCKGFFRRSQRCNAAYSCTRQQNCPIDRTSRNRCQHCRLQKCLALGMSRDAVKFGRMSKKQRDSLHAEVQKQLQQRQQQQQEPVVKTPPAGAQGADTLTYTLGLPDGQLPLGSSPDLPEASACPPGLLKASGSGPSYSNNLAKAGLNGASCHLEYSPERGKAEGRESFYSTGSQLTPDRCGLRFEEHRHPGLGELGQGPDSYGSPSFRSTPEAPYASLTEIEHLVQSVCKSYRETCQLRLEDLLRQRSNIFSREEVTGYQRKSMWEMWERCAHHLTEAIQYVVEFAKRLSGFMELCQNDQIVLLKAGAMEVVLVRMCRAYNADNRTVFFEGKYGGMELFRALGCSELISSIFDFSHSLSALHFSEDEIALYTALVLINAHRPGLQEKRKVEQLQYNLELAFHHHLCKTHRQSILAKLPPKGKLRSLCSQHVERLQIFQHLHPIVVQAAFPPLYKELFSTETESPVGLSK
# ASSAY_NOTES: RORγt (full-length human) reporter assay, conditions A or B
# EXPERIMENTAL_SETUP: HEK293T cells; read-out: RORγt (FL) Reporter Assay A or B, IC50
pIC50: −log10 of the molar value.

COMPOUND	pIC50
CCc1nc(C(=O)NC[C@]2(O)CC[C@@H](S(C)(=O)=O)CC2)c(Cl)n1-c1ncc(C[C@@H](C)C(F)(F)F)cc1OC(F)F (single isomer, unassigned) [Example 79]	6.66
CCc1nc(C(=O)NC[C@H]2CC[C@H](S(C)(=O)=O)CC2)c(F)n1-c1ccc(N[C@H](C)C(F)(F)F)cc1OC [Example 12]	6.80
CCc1nc(C(=O)NC[C@H]2CC[C@H](S(C)(=O)=O)CC2)c(C)n1-c1ccc(CC(C)C(F)(F)F)cc1OC (single isomer, unassigned) [Example 8]	6.80
[2H]C([2H])([2H])Oc1cc(CC(C)(C)C(F)(F)F)ccc1-n1c(CC)nc(C(=O)NC[C@]2(O)CC[C@@H](S(C)(=O)=O)CC2)c1F [Example 32]	7.15
CCc1nc(C(=O)NC[C@]2(O)CC[C@@H](S(C)(=O)=O)CC2)c(Cl)n1-c1ccc(CCCC(F)(F)F)cc1F [Example 98]	7.48
CCc1nc(C(=O)NC[C@H]2CC[C@H](S(C)(=O)=O)CC2)cn1-c1ccc(C[C@H](C)C(F)(F)F)cc1OC (single isomer, unassigned) [Example 20]	6.77
CCc1nc(C(=O)NC[C@]2(O)CC[C@@H](S(C)(=O)=O)CC2)c(C#N)n1-c1ccc(CC(C)(C)C(F)(F)F)cc1OC(F)(F)F [Example 111]	7.07
CCc1nc(C(=O)NC[C@]2(O)CC[C@@H](S(C)(=O)=O)CC2)c(Cl)n1-c1ccc(CC(C(F)(F)F)C(F)(F)F)c(F)c1 [Example 105]	7.28
CCc1nc(C(=O)NC[C@]2(O)CC[C@@H](S(C)(=O)=O)C[C@H]2O)c(Cl)n1-c1ncc(CC(C(F)(F)F)C(F)(F)F)cc1OC(F)F (stereo in doubt) [Example 67]	6.77
CCc1nc(C(=O)NC[C@]2(O)CC[C@@H](S(C)(=O)=O)CC2)c(C(N)=O)n1-c1ccc(CC(C)(C)C(F)(F)F)cc1OC(F)(F)F [Example 112]	7.77
CCc1nc(C(=O)NC[C@H]2CC[C@@H](S(C)(=O)=O)CC2)c(Cl)n1-c1ccc(N[C@H](C)C(F)(F)F)cc1OC [Example 4]	6.46
[2H]C([2H])([2H])Oc1cc(CCC(F)(F)F)ccc1-n1c(CC)nc(C(=O)NC[C@H]2CC[C@H](S(C)(=O)=O)CC2)c1C#N [Example 29]	7.06
CCc1nc(C(=O)NC[C@H]2CC[C@H](S(C)(=O)=O)CC2)c(Cl)n1-c1c(F)cc(C[C@@H](C)C(F)(F)F)cc1F (single isomer, unassigned) [Example 87]	7.74
CCc1nc(C(=O)NC[C@H]2CC[C@H](S(C)(=O)=O)CC2)c(Cl)n1-c1ccc(CC(C)(C)C(F)(F)F)c(OC)c1 [Example 42]	8.21
CCc1nc(C(=O)NC[C@H]2CC[C@H](S(C)(=O)=O)CC2)c(Cl)n1-c1ncc(CC(C(F)(F)F)C(F)(F)F)cc1OC(F)F [Example 63]	7.33
CCc1nc(C(=O)NC[C@]2(O)CC[C@@H](S(C)(=O)=O)CC2)c(Cl)n1-c1ncc(CC(C)(C)C(F)(F)F)cc1OC(F)F [Example 46]	7.55
